Reference for the values: PubChem BioAssay (NCI)

Tested on: NCI-H322M lung
Assay: NCI-60 one-dose screen, 48 h (100 = growth as untreated, 0 = no growth, -100 = all killed)
Details: 10 µM unless noted
Experimental: Growth inhibition of the NCI-H322M human Non-Small Cell Lung tumor cell line is measured as a screen for anti-cancer activity. Cells are grown in 96 well plates and exposed to the test compound for 48 hours. Compounds are tested at a single concentration, which is 10^-5 M for most compounds. The reported endpoint is percent growth (GI% or GIPRCNT), where numbers from 0 - 100% represent growth inhibition, and numbers from -100% - 0 represent cell death. […]
About 83,000 compounds went through this panel and 20% of them were active in at least one assay; those are over-represented in the sample as a whole.
Task for the reader: assign each of the following compounds its reported growth.
Give bare numbers, in %.

{"columns": ["molecular.string", "reported.property", "reported"],
 "data": [
  ["O=C(NC1CCOCC1)c1ccc2c(c1)CN(c1ncc(Cc3cccc(-n4cccn4)c3)s1)CC2", "growth", 87.8],
  ["OCCCCc1nccc2c1[nH]c1ccccc12", "growth", 88.9],
  ["CCCCNC(=O)c1cc(NCc2cc(O)ccc2O)ccc1O", "growth", 91.3]
]}

Note: attention shifts to another entry.
-- ask Entry `CC(C)OC(=O)NNC(=O)c1ccncc1` , system NCI-H322M lung: what growth was measured?
-- reply 92.3
